tested-system: UniProtKB P05177
Sequence (P05177 whole entry, species assumed): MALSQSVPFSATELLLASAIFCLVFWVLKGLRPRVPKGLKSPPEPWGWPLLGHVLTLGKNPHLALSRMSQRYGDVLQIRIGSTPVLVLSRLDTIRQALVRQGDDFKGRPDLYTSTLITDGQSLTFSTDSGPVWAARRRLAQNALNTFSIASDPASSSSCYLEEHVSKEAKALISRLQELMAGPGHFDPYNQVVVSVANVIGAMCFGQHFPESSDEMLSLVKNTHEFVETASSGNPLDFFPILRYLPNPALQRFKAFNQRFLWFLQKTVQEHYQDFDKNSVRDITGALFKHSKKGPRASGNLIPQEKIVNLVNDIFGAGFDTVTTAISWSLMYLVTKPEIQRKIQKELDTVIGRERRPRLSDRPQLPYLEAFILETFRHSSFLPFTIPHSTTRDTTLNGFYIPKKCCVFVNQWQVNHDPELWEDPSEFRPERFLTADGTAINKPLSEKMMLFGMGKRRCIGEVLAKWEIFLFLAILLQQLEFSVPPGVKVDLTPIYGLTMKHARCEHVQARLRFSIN
assay-info: CYP inhibition assay (fluorescent probe, recombinant protein)
protocol-conditions: n=1
observation-type: pIC50
Lab note: report pIC50 as minus log10 of the concentration in molar units, number only.

For the compound shown here, "Cc1ccc(-n2nc(C(C)(C)C)cc2NC(=O)NCc2cc(F)ccc2Oc2ccc3c(cnn3CCO)c2)cc1" , give the reported pIC50.
4.60

Reference for the values: patent US8039639B2
